- Test target: SARS-CoV E protein (Severe acute respiratory syndrome coronavirus)
- Sequence (P59637 whole entry, looked up): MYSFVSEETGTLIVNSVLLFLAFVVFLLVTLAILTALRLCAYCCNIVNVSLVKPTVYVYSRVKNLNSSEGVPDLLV
- Assay type: cell-based
Where a name gives a salt, the structure may show the parent alone.
Assignment: determine reported SARS E protein Inhibition (score/# of times tested) for the given compounds.

Consider N=C(NC(=O)/C=C/c1ccccc1)Nc1ccccc1 . Its measured SARS E protein Inhibition (score/# of times tested) is 1.19/2 score

SARS E protein Inhibition (score/# of times tested) measured on COc1cc(/C=C/C(=O)NC(=N)N)cc(OC)c1OC = 2.25/1 score

Short answer for N=C(N)NC(=O)/C=C/c1ccc(F)cc1 : SARS E protein Inhibition (score/# of times tested) was 1.25/1 score

The recorded SARS E protein Inhibition (score/# of times tested) for N=C(N)NC(=O)Cc1ccccc1 is 0.32/3 score

Entry CC(C)(C)c1ccccc1/C=C/C(=O)NC(=N)N ; SARS E protein Inhibition (score/# of times tested) = 1.86/1 score

Query N=C(N)NC(=O)/C=C/c1cccc(C2=CCCCC2)c1 yields SARS E protein Inhibition (score/# of times tested) of 3.75/1 score

Lookup result for N=C(N)NC(=O)/C=C/c1ccc(C(F)(F)F)cc1 ; measured SARS E protein Inhibition (score/# of times tested): 2.75/1 score

Value of SARS E protein Inhibition (score/# of times tested) reported for the compound CCc1ccccc1/C=C/C(=O)NC(=N)N is 1.50/1 score

Measured SARS E protein Inhibition (score/# of times tested), CC(C)(C)c1ccc(/C=C/C(=O)NC(=N)N)cc1 : 4.00/1 score

So, CC(C)(C)Nc1nc(N)c(C(=O)N=C(N)N)nc1Cl [5-tert-butylamino-amiloride] ? Its SARS E protein Inhibition (score/# of times tested) was 2.01/2 score

compound N=C(N)NC(=O)/C=C/c1ccccc1C(F)(F)F , SARS E protein Inhibition (score/# of times tested) observed: 1.38/1 score

Notebook: N=C(N)NC(=O)/C=C/C=C/c1cccc(Br)c1 , SARS E protein Inhibition (score/# of times tested) read as 0.5/1 score

Sample N=C(N)NC(=O)/C=C/c1cccc(C(F)(F)F)c1 ; SARS E protein Inhibition (score/# of times tested) observed: 2.67/1 score

The measured SARS E protein Inhibition (score/# of times tested) associated with Cc1ccc(C)c(/C=C/C(=O)NC(=N)N)c1 reads 3.63/1 score

Input CCOc1ccc(/C=C/C(=O)NC(=N)N)cc1 . Output SARS E protein Inhibition (score/# of times tested): 2.48/2 score

Reported SARS E protein Inhibition (score/# of times tested) ( N=C(N)NC(=O)/C=C/c1ccc2c(c1)OCO2 ) = 1.25/1 score

// sample Cc1ccccc1/C=C/C(=O)NC(=N)N , its SARS E protein Inhibition (score/# of times tested) was 1.00/1 score

Input N=C(N)NC(=O)/C=C/c1cccc2ccccc12 [trans-3-(1-napthyl)acryloylguanidine] . Output SARS E protein Inhibition (score/# of times tested): 3.38/2 score

Data point: N=C(N)NC(=O)/C=C/c1cc(Br)ccc1F ; SARS E protein Inhibition (score/# of times tested) = 2.00/1 score

Kindly note the recorded SARS E protein Inhibition (score/# of times tested) for COc1cccc(/C=C/C(=O)NC(=N)N)c1 , which is 0.63/2 score

Entry NC(N)=NC(=O)/C=C/c1ccc(Cl)cc1 — recorded SARS E protein Inhibition (score/# of times tested) = 1.94/2 score

// sample N=C(NC(=O)CCc1ccccc1)Nc1ccccc1 , its SARS E protein Inhibition (score/# of times tested) was 1.57/2 score

Noted for NC(N)=NC(=O)c1ccc2cc(C(=O)N=C(N)N)ccc2c1 : its SARS E protein Inhibition (score/# of times tested) reads 0.25/2 score

GET /value?item= N=C(N)NC(=O)/C=C/c1ccoc1 [trans-3-Furanacryoylguanidine, trans-3-furanacryoylguanidine] &field=SARS E protein Inhibition (score/# of times tested) returns 0.88/2 score

// SARS E protein Inhibition (score/# of times tested) lookup, compound = N=C(N)NC(=O)COc1ccc(Cl)cc1 [[(4-Chlorophenoxy-acetyl]guanidine, (4-Chlorophenoxy-acetyl)guanidine] , result: 0.19/2 score

Noted for Cc1cc(C)c(C)c(/C=C/C(=O)NC(=N)N)c1C : its SARS E protein Inhibition (score/# of times tested) reads 1.00/1 score

GET /value?item= N=C(N)NC(=O)/C=C/c1ccccc1C1CCCCC1 &field=SARS E protein Inhibition (score/# of times tested) returns 1.83/1 score

Per the records, this compound ( COc1ccc(/C=C/C(=O)NC(=N)N)cc1 ) has SARS E protein Inhibition (score/# of times tested) equal to 0.88/2 score

Notebook: N=C(N)NC(=O)Cc1ccc2ccccc2c1 , SARS E protein Inhibition (score/# of times tested) read as 0.71/1 score

Please fill in: SARS E protein Inhibition (score/# of times tested) reported for N/C(=N\C(=O)c1nc(Cl)c(N)nc1N)NCc1ccc(Cl)cc1Cl [2′4 DichloroBenzamil HCl] = 3.00/2 score

Reported SARS E protein Inhibition (score/# of times tested) ( O=C(CCc1ccccc1)NC(=Nc1ccccc1)NC(=O)CCc1ccccc1 ) = 1.33/3 score

Quick note, SARS E protein Inhibition (score/# of times tested) for NC(N)=NC(=O)/C=C/c1ccccc1 landed at 0.69/3 score

Lab note: measured SARS E protein Inhibition (score/# of times tested) of N=C(N)NC(=O)/C=C/c1cccc(F)c1F was 4.50/1 score

// SARS E protein Inhibition (score/# of times tested) value for N=C(N)NC(=O)/C=C/c1ccccc1Cl : 3.1/3 score
